# maps each entry to its kon
molecular target: T1, AAV9; experiment: SPR, AAV on CM5 chip;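 note: surface plasmon resonance with AAV amine-coupled to the chip as ligand, nanobodies injected as analyte over a concentration series, rate constants and affinity fitted from binding curves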
T1 construct: also called adeno-associated virus serotype 9

BINDER | READOUT_UNITS | kon
A4-019 (VHH) VHH: VQLQESGGGLVQAGGSLRLSCAASGSTFSINTMGWYRQAPGKQRELVATITRGGSTNYADSVKGRFTISRDNAKNTVYLQMNSLRPEDTAVYYCHVDEVRQSSWTTSNIWGQGTQVTVSS | M⁻¹ s⁻¹ | 11700
A4-014 (VHH) VHH: VQLQESGGGLVQPGGSLRLSCAASGSRFSINSMGWYRQAPGKQRELVATVTRGGNTNYAGSVKGRFTISRDNAKNTVYLQMNSLRPEDTAVYYCHVDEVRESSWTTSNLWGQGTQVTVSS | M⁻¹ s⁻¹ | 64000
A4-047 (VHH) VHH: VQLQESGGGLVQPGGSLRLSCAASGSRFSINTMGWYRQAPGKQRELVATVTRGGSTNYAGSVKGRFTISRDNAKNTVYLQMNSLRPEDTAVYYCHVDEVRQSSWTTSNLWGQGTQVTVSS | M⁻¹ s⁻¹ | 50500
A4-028 (VHH) VHH: VQLQESGGGLVQPGGSLRLSCAASGSNFSINTMGWYRQAPGKQRELVATVTRGGDTNYADSVKGRFTISRDNAKNTVYLQMNSLRPEDTAVYYCHVDEIRESSWTTSNLWGQGTQVTVSS | M⁻¹ s⁻¹ | 82400
A4-049 (VHH) VHH: VQLQESGGGLVQPGGSLRLSCAASGSMFSINTMGWYRQAPGKQRELVAAVTRGGNTNYAGSVKGRFTISRDNAKNTVYLQMNSLRPEDTAVYYCHVDEVRQSSWTTSNLWGQGTQVTVSS | M⁻¹ s⁻¹ | 20800
A4-041 (VHH) VHH: VQLQESGGGLVQPGGSLRLSCAASGRGFSINTMGWYRQAPGKQRELVATVTRGGSTNYANSVKGRFTISRDNAKNTVYLQMNSLRPEDTAVYYCHVDELRQSSWTTSNLWGQGTQVTVSS | M⁻¹ s⁻¹ | 174000
A4-050 (VHH) VHH: VQLQESGGGLVQPGGSLRLSCAASGSSFVINTMGWYRQAPGKQRELVAAVTRGGSTNYADSVKGRFTISRDNAKNTVYLQMNSLRPEDTAVYYCHVDEVRQSSWTTSNLWGQGTQVTVSS | M⁻¹ s⁻¹ | 194000
A4-030 (VHH) VHH: VQLQESGGGLVQPGGSLRLSCAASGSSFTINTMGWYRQAPGKQRELVAAVTRGGSTNYAGSVKGRFTISRDNAKNTIYLQMNSLRPEDTAVYYCHVDEIRQSSWTTSNLWGQGTQVTVSS | M⁻¹ s⁻¹ | 9200
A4-002 (VHH) VHH: VQLQESGGGLVQPGGSLRLSCAASGRSFSINTMGWYRQAPGKQRELVAAVTRGGSTNYAGSVKGRFTISRDNAKNTVYLQMNSLRPEDTAVYYCHIDEVRQSSWTTSNIWGQGTQVTVSS | M⁻¹ s⁻¹ | 47500
A4-043 (VHH) VHH: VQLQESGGGLVQPGGSLRLSCAASGRAFSINTMGWYRQAPGKQRELVATVTRDGSTNYAGSVKGRFTISRDNAKNTVYLQMNSLRPEDTAVYYCHVDEVRQSSWTTSNLWGQGTQVTVSS | M⁻¹ s⁻¹ | 144000
A4-008 (VHH) VHH: VQLQESGGGLVQAGGSLRLSCAASGRAFSINTMGWYRQAPPKQRELVATVTRGGSTNYAGSVKGRFTISRDNAKNTIYLQMNSLRPEDTAVYYCHVDEVRQSSWTTSNIWGQGTQVTVSS | M⁻¹ s⁻¹ | 8270
A4-016 (VHH) VHH: VQLQESGGGLVQPGGSLRLSCAASGSIFSINLMGWYRQAPGKQRELVATITPGGNTNYAGSVKGRFTISRDNAKNTVYLQMNSLRPEDTAVYYCHVDEVRQSSWTTSNLWGQGTQVTVSS | M⁻¹ s⁻¹ | 3600
A4-005 (VHH) VHH: VQLQESGGGLVQAGGSLRLSCAASGRHFSINTMGWYRQAPGKQRELVAAVTRGGGTNYAGSVKGRFTISRDNAKNTVYLQMNSLRPEDTAVYYCHIDEVRQSSWTTSNIWGQGTQVTVSS | M⁻¹ s⁻¹ | 237000
A4-026 (VHH) VHH: VQLQESGGGLVQPGGSLRLSCAASGSNFRINTMGWYRQAPGKQRELVAPVTRGGSTNYADSVKGRFTISRDNAKNTVYLQMNSLRPEDTAVYYCHVDEVRESSWTTSNLWGQGTQVTVSS | M⁻¹ s⁻¹ | 81600
A4-020 (VHH) VHH: VQLQESGGGLVQAGGSLRLSCAASGSTFSINTMGWYRQAPGKQRELVATITRGGNTNYADSVKGRFTISRDNAKNTVYLQMNSLRPEDTAVYYCHVDEVRQSSWTTSNLWGQGTQVTVSS | M⁻¹ s⁻¹ | 23000
